Every entry's value here was drawn from ChEMBL document CHEMBL5058577.

Tested on: Fibroblast
Assay: Multiplex assay against human fibroblast
Assay type: toxicity, cell-based
Conditions: 24 h, 10 µM, compound concentration 10 uM, replicate 1
# key: entry, value: Total Cell Count

{"columns": ["Compound", "Total Cell Count"],
 "data": [
  ["COc1ccc2c(c1)C(C(=O)N(Cc1ccc(N(C)C)cc1)c1ccc(C(C)C)cc1)CCC2.Cl (centres undefined)", 180],
  ["CN(C)c1ccnc2sc3c(=O)n(N4CCCCCC4)cnc3c12", 130],
  ["Cc1ccccc1C(=O)Nc1ccc(C(=O)N2CCCC(N(C)C)c3ccccc32)cc1.Cl (centres undefined)", 111],
  ["O=S(=O)(c1ccccc1)c1cnc2c(N3CCNCC3)cccc2c1 [INTEPIRDINE]", 152],
  ["CCCn1c(=O)c2[nH]c(C3CCCC3)nc2n(CCC)c1=O", 104],
  ["Oc1c(CN2CCN(c3ccccn3)CC2)cc(Cl)c2cccnc12", 139],
  ["CN(C)CCCc1cc(C(=O)Nc2ccc(-c3ccncc3)cc2)ccc1O.Cl.Cl", 339],
  ["COc1cc(NC(=O)CCN2CCC(OC(=O)Nc3ccccc3-c3ccccc3)CC2)c(Cl)cc1CNC[C@H](O)c1ccc(O)c2[nH]c(=O)ccc12 [BATEFENTEROL]", 247],
  ["N[C@@]1(C(=O)O)CO[C@H]2[C@H](C(=O)O)[C@H]21 [LY-379268]", 189],
  ["Cc1nc2ccc(Oc3ccc(F)cc3)cc2c(=O)n1C[C@H]1CCCN(C(C)C)C1.Cl", 290],
  ["O=C(O)c1cc2ccccc2c(Cc2c(O)c(C(=O)O)cc3ccccc23)c1O [PAMOIC ACID]", 138],
  ["COc1c(C)cc(NC(=O)c2nn(Cc3ccc(F)cc3)c3c2CN(C(=O)c2ccc[nH]2)C[C@]3(C)C(N)=O)cc1C", 159],
  ["CCCN1CCC[C@@H]2Cc3n[nH]cc3C[C@H]21.Cl [QUINPIROLE HYDROCHLORIDE]", 119],
  ["C[C@H](NC(=O)c1c(C(F)F)nn(C)c1Oc1cccc(C(F)(F)F)c1)c1ccc(C(=O)O)cc1 [PALUPIPRANT]", 131],
  ["O=C(NCCO)c1cccc(-c2cc(Nc3ccc(OC(F)(F)F)cc3)ncn2)c1", 175],
  ["Cl.Clc1ccc2nsnc2c1NC1=NCCN1 [TIZANIDINE HYDROCHLORIDE]", 122],
  ["CSCC[C@H](NC=O)C(=O)N[C@@H](CC(C)C)C(=O)N[C@@H](Cc1ccccc1)C(=O)O", 107],
  ["CCNC1(C(N)=O)CCN(c2ncnc3c2nc(-c2ccccc2Cl)n3-c2ccc(Cl)cc2)CC1 [OTENABANT]", 174],
  ["COc1cc(C(=O)N(CCCc2ccccc2)Cc2ccc(CC(=O)O)cc2)cc(OC)c1C", 192],
  ["N#Cc1c(N)nc(SCc2csc(-c3ccc(Cl)cc3)n2)c(C#N)c1-c1ccc(OCCO)cc1 [CAPADENOSON]", 179],
  ["Cc1ccc(F)cc1C(=O)Nc1ccc(C(=O)N2Cc3cccn3Cc3ccccc32)c(Cl)c1 [LIXIVAPTAN]", 142],
  ["C[C@H]1[C@H]2CC[C@H]3[C@@H]4CC=C5C[C@@H](N(C)C)CC[C@]5(C)[C@H]4CC[C@]23CN1C [CONESSINE]", 190],
  ["Cc1ccc(C(C)(O)c2nc3ccccc3s2)c(C)c1 (centres undefined)", 152],
  ["CN1CCN2c3ncccc3Cc3ccccc3C2C1 (centres undefined) [MIRTAZAPINE]", 186],
  ["c1cc(OCCCN2CCCCC2)ccc1CN1CCCCC1 [JNJ-5207852]", 201],
  ["CSc1ccccc1N1CCN(CCCCCC(=O)NC2CCCc3ccccc32)CC1.Cl (centres undefined)", 211],
  ["CC(C)(C)c1ccc(S(=O)(=O)Nc2ccc(Cl)cc2C(=O)c2cc[n+]([O-])cc2)cc1 [VERCIRNON]", 114],
  ["CCOc1c2c(c(OCC)c3ncccc13)CN(c1ccc(CS(=O)(=O)NC(=O)Cc3ccccc3OC)cc1C)C2=O", 171],
  ["CC[C@H]1OC(=O)[C@H](C)[C@@H](O[C@H]2C[C@@](C)(OC)[C@@H](O)[C@H](C)O2)[C@H](C)[C@@H](O[C@@H]2O[C@H](C)C[C@H](N(C)C)[C@H]2O)[C@@]2(C)CC(C)=C(O2)[C@H](C)[C@@H](O)[C@]1(C)O", 199],
  ["O=C1COc2nccc(-c3ccccc3F)c2CN1Cc1cc(C(F)(F)F)cc(C(F)(F)F)c1", 162],
  ["Cc1ccc(/C(=C\\CN2CCCC2)c2ccccn2)cc1 [TRIPROLIDINE]", 142],
  ["CN1CCN(c2nc3cc(C(F)(F)F)ccc3n3cccc23)CC1.O=C(O)/C=C\\C(=O)O.O=C(O)/C=C\\C(=O)O", 214],
  ["CC(=O)NCCc1c(Cc2ccccc2)[nH]c2ccccc12 [LUZINDOLE]", 138],
  ["O=C(NCC(=O)N1CC[C@H](N[C@H]2CC[C@@](O)(c3ccc(-c4ncccn4)cn3)CC2)C1)c1cccc(C(F)(F)F)c1 [PF-4136309]", 203]
]}
